Would you kindly list CC50 for each of these molecules?
system: MRC5; assay: Compound was tested for cytotoxicity by measuring inhibition of MRC-5 cell proliferation.; assay type: functional; settings: Homo sapiens

INSERT INTO results (smiles_input, result_value) VALUES
  ('Nc1ccn(C[C@@H](CO)OCP(=O)(O)O)c(=O)n1.O.O', '19 µg/mL'),
  ('Nc1nc(O)c2ncn(C[C@@H]3CC[C@H](P(=O)(O)O)O3)c2n1', '> 10 µg/mL'),
  ('Nc1nc(O)c2ncn(C[C@@H]3CC[C@@H](P(=O)(O)O)O3)c2n1', '28 µg/mL');

Would you kindly look at the next entry?
Report CC50 for Nc1nc2c(ncn2COC(CO)CO)c(=O)[nH]1 tested on MRC5.
> 100 µg/mL
